melting point values, listed per item

Completed entries (count: 5):
# smiles record, melting point
measured = [
    ("COc1ccc2c(c1F)CSc1c(C(F)(F)F)nn(-c3ccc(S(=O)(=O)NC(C)=O)cc3)c1-2.[Na]", "183 to 191.1 °C"),
    ("CNS(=O)(=O)c1ccc(-n2cccc2-c2ccc(F)cc2)cc1", "174 °C"),
    ("CCC(=O)NS(=O)(=O)c1ccc(-c2c(C)c(C)nn2-c2ccccc2)cc1", "187.4 to 188.7 °C"),
    ("COc1ccc(-c2cc(C(F)F)nn2-c2ccc(S(=O)(=O)NC(C)=O)cc2)cc1F", "173 to 175 °C"),
    ("CCC(=O)NS(=O)(=O)c1ccc(-n2cc(C(F)(F)F)nc2-c2cccnc2C)cc1", "217 to 218 °C"),
]

In: Note down melting point recorded for "COC(=O)C(=O)NS(=O)(=O)c1ccc(-c2c(-c3ccccc3)noc2C)cc1"
Out: 171.1 to 172.3 °C

In: Note down melting point recorded for "CC(=O)NS(=O)(=O)c1ccc(-n2nc(C(F)(F)F)cc2-c2ccc(Cl)cc2)cc1"
Out: 161.9 to 162.7 °C

In: Note down melting point recorded for "CCC(=O)NS(=O)(=O)c1ccc(C2=C(c3ccccc3)COC2=O)cc1"
Out: 182.3 to 183.4 °C

Data provenance is patent US6815460B2.
